Origin of measurements: patent USRE43327E1

Test system: PC-3
Assay: Growth inhibition assay, PA alone, PC-3
Format: cell-based
Settings: Homo sapiens, PC-3, 144 h, PA alone (no DFMO), six days; repeat determinations; read-out: Cell Line IC50 PC-3
Protocol: Medias were obtained from Mediatech, Inc. (Herdon, Va.) and serums from Gibco BRL (Gaithersburg, Md.). 50 U/ml penicillin, 50 μg/ml streptomycin and 2 mM L-glutamine (all from Bio Whittaker, Walkersville, Md.) were included in all cultures. […] When cells were cultured with polyamines or ORI compounds, 1 mM aminoguanidine (AG; Sigma) was included to inhibit serum amine oxidase activity.
Listing of entries alongside the reported IC50.

NCCCNCCCCNCCCNC(=O)[C@@H](N)CCCCNCC12CC3CC(CC(C3)C1)C2 ... > 100 µM

So what does the record say about IC50 for CC(C)C(=O)NCCCC[C@@H](N)C(=O)NCCCNCCCCNCCCN ?
> 100 µM

So what does the record say about IC50 for CC(C)CC(C)NCCCCC(N)C(=O)NCCCNCCCCNCCCN (single isomer, unassigned) ?
> 100 µM

So what does the record say about IC50 for CCCCCCCC(=O)NCCCC[C@@H](N)C(=O)NCCCNCCCCNCCCN ?
> 30 µM

So what does the record say about IC50 for CC(C)CCNCCCC[C@@H](N)C(=O)NCCCNCCCCNCCCN ?
> 100 µM

So what does the record say about IC50 for NCCCNCCCCNCCCNC(=O)[C@H](N)CCCCNCc1ccc(-c2ccccc2)cc1 ?
> 100 µM

So what does the record say about IC50 for CCCCCC(=O)NCCCC[C@@H](N)C(=O)NCCCNCCCCNCCCN ?
> 100 µM
